tested on: RARg homodimer (NR concentration 270 nM); assay: PBM binding z-score (relative to random genomic background probes); higher = stronger binding; sequences stand for … in GC…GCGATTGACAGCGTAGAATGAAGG
Classify as follows. Reported PBM binding z-score greater than or equal to 2: Y. Reported PBM binding z-score below: N.

SEQ	SYSTEM_TESTED	CATEGORY
ATCTCTAGGTAACAGTTCAGTGAATCCCGAGGAT	RARg homodimer (NR concentration 270 nM)	N
CAATCTAGGTCAAGGTCAAAGTCGGTTTGTGCCA	RARg homodimer (NR concentration 270 nM)	Y
AGAATGAGGTTATTAAGATCAGTGAATTGCGGTC	RARg homodimer (NR concentration 270 nM)	N
GCTGCTAGGTCAACTGATGGTCAGCCAAAGCTCG	RARg homodimer (NR concentration 270 nM)	Y
CCTTACGGGTCACTTCAGGTTATAGCATCGGAGT	RARg homodimer (NR concentration 270 nM)	Y
ATATGTCGGTTAGCTGGGGTCATTCAGACTAGGC	RARg homodimer (NR concentration 270 nM)	Y
TAGCCGAGGTCATGGGCCAGTATACCACGCGAAC	RARg homodimer (NR concentration 270 nM)	Y
GCTTGTTGATCAAGGTTAAGAAAGACTAAGCTAA	RARg homodimer (NR concentration 270 nM)	N
ACTAGCAGGCCAAGTTTGGGTCCCTCAAACAAAG	RARg homodimer (NR concentration 270 nM)	N
CCTACTCGGCCATTCAGAGGTCATTGATCATATG	RARg homodimer (NR concentration 270 nM)	Y
ATCTATAGGTAAAGTTCAGTGAAAGATCGATAGA	RARg homodimer (NR concentration 270 nM)	Y
TCATATAGGTAATTGCTAGGTGAAAGTCCGATCT	RARg homodimer (NR concentration 270 nM)	N
CCTAGCAGGCCAATCTGGGTCAATCAAGGCTTGA	RARg homodimer (NR concentration 270 nM)	N
TAGCCTAGGTCATTGGGCCCGTATAGTACGCATC	RARg homodimer (NR concentration 270 nM)	Y
TAGCCTAGGTCATGAGGGCCAGTATAGTGTCGGC	RARg homodimer (NR concentration 270 nM)	Y
CCTACTGGGCCAAAAAGGTGATTGATGCCGATAA	RARg homodimer (NR concentration 270 nM)	N
TCATATAGGTAAATGCTAGGTGACAGTCCGATCT	RARg homodimer (NR concentration 270 nM)	N
ACAGCCAGGTGATGAAGGTAACTCAGGCTATCAT	RARg homodimer (NR concentration 270 nM)	N
CCAACTGGGGCATAAGGTTACCATAAGCCAGCCC	RARg homodimer (NR concentration 270 nM)	N
CCGACTGGGGCATAAGGTTACCATTAGCCAGCCC	RARg homodimer (NR concentration 270 nM)	N
CAGACTGGGGCAGAAAGGTTACCATACCATCCGG	RARg homodimer (NR concentration 270 nM)	N
CGAACTAGGTCAAGGACAGTGCATCTCCGCACGC	RARg homodimer (NR concentration 270 nM)	Y
TAGCCTAGGTCATTGGGCCAGTAGAGTACGCATC	RARg homodimer (NR concentration 270 nM)	Y
AGCTCTAGGTAAGACTCAGTTCAGTGAAGAACGC	RARg homodimer (NR concentration 270 nM)	N
AGATGTAGGTTAAGGGTCATTCAGGTTGGTTCGC	RARg homodimer (NR concentration 270 nM)	Y

----------
test system: PPARg homodimer (NR concentration 180 nM); experiment: PBM binding z-score (relative to random genomic background probes); higher = stronger binding; sequences stand for … in GC…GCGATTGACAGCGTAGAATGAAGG

SEQ	PBM binding z-score
CGTCCAAGGTCAGCAGGTCAGTGGAAGCGACGTG	2.96
TCTGCTAGGTCAGTTGGTCAGCGAACGAGCTGCC	0.0639
ATATGTAGGTTATCGTGTCATTCAGTTTGCGCAT	1.76
TCTTGTAGATTAAAGGTTAAGAAAGCCGAAGCCT	1.17
TCTTGTAGAACAGCAGGTTAAGAAAGCTGGCCAA	-0.509
ACTAGCAGGCCAAGGGTCACGCAAGATTAGTCCG	2.62
ACTCGCAGGACAAAGGTCAGAGCTACGCCAGTGA	1.88
TAGCCTCGGTCATGGGCCAGTATACCACGCGAAC	-0.0918
TCATATAGGTAAATGCTTGGTGAAAGTCCGATCT	0.653
CCACGGAGGACAACAGGAGGTCAGAGCTGCCAGA	1.79
ACTATTAGTTGACACGAGGGCAACCGATAGGTTG	0.695
CTACCAAGGTGAACAAGGACGTTGATTACTATTC	0.761
TGAATGAGATTAAAGATCAGGGAACGTGGCGTCG	-0.076
TATACAGGGTCAAAGGCCAGATTACGAATGTCGA	2.87
TCTCGGAGGAGACGAAAGGTCAGAGCTCGACATC	3.1
ATCTCTAGGTAACCAAGTTCAGTGTATGCCGAAC	0.882
CCTATTAGTTGACCAGAAGGGCAACCGAAGCTCG	1.64
GGAACGAGGGCAATGTTGATAGCATCTGTCGACG	0.467
TAGCCTAGGTAATTGGGCCAGTATAGTACGCATC	-0.531
TGTATTAGTTGATTAGGGCAACCGAAACAGCGGA	1.28
TCCTATAGGTAAACAGGTGAAAGTCCGTAAGTTA	0.672
CGACCTAGGTCAGAACAGGACAGTGAAGGATGAT	1.04
TCGAGTGGGTTAGGGGCATTCAGAATGGCGTCGA	0.908
TCATATAGGTAATCCAGGTGAAAGTCGGCATCTA	1.69
CCTGACAGGTGAGAAGGTAACTCAGCCTCGATTA	0.832
TAGCCTAGGCCAGATCGGGCCAGTATACGCTATA	-1.06

----------
test system: LXRa:RXRa (NR concentration 270 nM, RXRa partner concentration 90 nM); experiment: PBM binding z-score (relative to random genomic background probes); higher = stronger binding; sequences stand for … in GC…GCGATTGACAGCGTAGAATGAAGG
Known PBM binding z-score of a selection of sequences

SEQ	PBM binding z-score
CGAACTAGGTCATTTACAGGACAGTGAATAGTAA	3.3
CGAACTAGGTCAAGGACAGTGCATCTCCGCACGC	2.49
ACTTACGGGGCAACGAGGTTATAGCACGCGTATA	0.688
CATCCAAGGTCAAGGTCAGTGAAAGAGACTCGAA	6.14
ACTATTAGTGGAGACGAGGGCAACCGATAGGTTG	-0.21
TCTTGTACATCAAGCAGGTTAAGAAAGCCTGAGT	0.852
CTACCAAGGTGAACAAGGCCGTTGATTACTATTC	0.209
CGAACTAGGTCGTTGACAGGACAGTGAATAGTAA	0.178
ATCGAAAGGTCGAATGTGAGTATACCCACCCGAA	4.01
ATCTGTAGGTAAGACTCAGTTCAGTGAAGAACGC	0.226
CCTACTGTGCCATCAGGTCATTGATATCAACGTT	2.1
GCTAGCAGGCCTTTTGGGTCACTCAATGACGGGC	-0.171
AGAATGAGGTTACCAAAGATCAGGGAGACGCTTG	6.33
CGTCCAAGGCCATAGGAGGTCAGTGAAGACAGAT	3.14
CGAACGAGGGCATGAGTAGATAGCAAATGCCGAT	0.081
TCATATATGTAATACAGGTGAAAGTCGGCATCTA	0.799
ATCTCTAGGGAACCAAGTTCAGTGAATGCCGAAC	0.011
TAGCCTAGGTCAGATCGGGCCGGTATACGCTATA	0.768
GCTCGGAGGACAAGGTGAGAGCTTTGTCCGTAGA	-0.339
CGTCCGAGGTCAGAGAGGTCAGTGAATGCCGAGT	5.78
AGAATGAGGTTTTTAAGATCAGGGAATTGCGGTC	-0.436
TAGCCTAGGTCATTCGGGGGCCAGTATAGAAAGC	4.7
AATACAGGGTCACTAGGCCATAGTAGGTACGAAT	4.98
TATACAGGGTCAAAGGCCTGAGTACGAATGTCGA	6.36
CGTCGAAGGTCAAAGGTCAGTGAAGAGATGACGG	6.95
TCTAGTTGGTCATAGGTCACACACTCGAAATGCG	3.34
GCGACTGGGGCAAAGCAGGTTCCCATAAGGTTGG	-0.649
TAGGCTAGGTCATTGGGCCAGTATAGTACGCATC	2.77
ATATGTAGGTTAGCTCGGGTCATTCAGACTAGGC	4.5
TCGAGTAGGTTAGGGGCATTCCGAATGGCGTCGA	0.403
GCTAGCAGGCCACTTGGGTCACTCAATGACGGGC	-0.115
TCGAGTAGGTTACGGGCATTCAGAATGGCGTCGA	0.894
CCGACTGGGGCAAGATTACCATAACGCACAGCCA	-0.432
CGAACTAGCTCAGAACAGGACAGTGAAGGATGAT	-0.642
CATACATGGTCAGCTAGGCCAGAGTAGGGACGGC	-0.26
AGAATGAGGTAACCAAAGATCAGGGAAACGCTTG	3.81
ACTTACGGGTCAACGAGGTAATAGCACGCGTATA	4.42
TCTCGGAGGACACGAAGATCAGAGCTTTCCAGAG	-0.201
ATCGAAAGGTCGACGAGGTGAGTCTACACCGTTT	3.39
CCAGACAGGTGAGAGGGTAACTCAGCCTCGATTA	0.0679
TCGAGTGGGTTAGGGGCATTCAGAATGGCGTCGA	0.401
CATCAAAGTTCAACTAAGGTAACGTAAAGCACGC	6.82
GCTCGGAGGACAAGGTCAGAGTTTTGTCCGTAGA	1.71
CCTAGTTGGTCAGGAGGTCAAACACCGGATATGA	4.4
CCTACTGGGGCAAGGTCATTGATCAGTCAAAGCA	3.26
CCGATTGGGGCAAAGGTTACCATACTCAGTACGA	1.62
TCAGACAGGTGAAGGAAACTCAGGTACGCAGTCG	1.04
ACAGACAGGTGATGAACGTAACTCAGGCTATCAT	-0.174
TCGAGTAGGTTAGTCGGGGGATTCAGCCAACATA	0.506
ATCGAAAGGTCGAAGATGAGTATACCCACCCGAA	3.21
TTTCCAAGGTGAAGGTCGTTGATCCCTCTGTAGA	2.31
